Experiment: folding stability dG unfold (combined trypsin and chymotrypsin); higher = more stable
Experimental Readout: folding stability dG unfold (kcal/mol)
Note: unit kcal/mol is implicit; provide only the numeric part.

Residue Sequence | Scale Unit | folding stability dG unfold
SAGGSASMKIRVYTISLYRPDGESVRDVPIVVPENEPDVDPEALAKAIADELGLVKVEISEEIVPLSAGGSA [r15_333_JUSTAS] | kcal/mol | 1.14

Task: May I ask what folding stability dG unfold has been recorded for SAGGSAGGSAMTVRFGKPEELEKAEELAEEIAKAHPGKPIKVTVTKDPNNPDEYTVTITEESAGGSAGGSAG [r3_131_JUSTAS] ?
Output: 0.289

Task: Likewise for SAGGSAGGSAGGKLIVLPVTSDEVFDFGDGPIPVPAGSIVVLEISPDGAKALVFSPEDLSAGGSAGGSAGGS [r10_353_TrMRF] ?
Output: 1

Task: Also SAGGSAETIETVSSTFPVFSEDDKPVAVVKTYIFKFEDGELVLTEVFTPDGKPVAVKVASLDEFLNSAGGSA [r15_755_TrMRF] , if possible.
Output: 1.56

Task: Can you handle SAGGSAGGSAGGSSSSTVPLPDDTTLTVHTGSSSYTVTTTSPDGTSTTTTVSPATVAAALSAGGSAGGSAGG [r11_1068_JUSTAS] next?
Output: 0.188

Task: Check SAGGTATVEAALAALPADLPRGSLALHPETGLVEPLEPSPEDAVAYPVNPATGERYPLRVEADAVRLLSAGG [r13_803_JUSTAS] too.
Output: -0.517
